Tested On: Rabies virus glycoprotein G, strain CVS-11 (Challenge Virus Standard-11, ATCC VR 959) (Rabies virus, strain CVS-11)
Method: cell-based or functional assay
// reported CVS neutralizing antibody titre (RFFIT): nM IC50 for each item listed
Recorded Endpoint: CVS neutralizing antibody titre (RFFIT): nM IC50 (nM)

# Binder, Lt Gt Eq, Result Number
records = [
    ("214-E8 25GS 212-C12 (VHH) EVQLVESGGGSVQAGGSLRLSCAASGGTFNPYVMAWFRQAPGNEREFVARIRWSGGDAYYDDSVKGRFAITRDAAKNTVHLQMNSLKPEDTAVYYCAAATYGYGSYTYGGSYDLWGQGTQVTVSSGGGGSGGGGSGGGGSGGGGSGGGGSEVQLVESGGGLVQPGGSLRLSCAASGFTFGSSDMSWVRQAPGKGPEWVSGINSGGGRTLYADSVKGRFTISRDNAKNTLYLQMNSLKSEDTAVYYCATDLYGSSWYTDYWSQGTQVTVSS", "=", 1.94),
    ("214-F8 15GS 214-F8 (VHH) EVQLVESGGDLVQAGGSLRLSCVASGSTYSINAMGWYRQAPGKLRELVAAFRTGGSTDYADSVKGRFTISRDTAKNTVYLQMNSLKPEDTAVYYCNAEVIYYPYDYWGQGTQVTVSSGGGGSGGGGSGGGGSEVQLVESGGDLVQAGGSLRLSCVASGSTYSINAMGWYRQAPGKLRELVAAFRTGGSTDYADSVKGRFTISRDTAKNTVYLQMNSLKPEDTAVYYCNAEVIYYPYDYWGQGTQVTVSS", "=", 1.79),
    ("213-E6 5GS 212-C12 (VHH) EVQLVESGGGLVQAGASLRLSCAASGSTLSRYGVGWFRQAPGKERELVASVDWSGSRTYYADSVKGRFTISRDNAKNTGYLQMNSLKPDDTAVYYCAADSSVVPGIEKYDDWGLGTQVTVSSGGGGSEVQLVESGGGLVQPGGSLRLSCAASGFTFGSSDMSWVRQAPGKGPEWVSGINSGGGRTLYADSVKGRFTISRDNAKNTLYLQMNSLKSEDTAVYYCATDLYGSSWYTDYWSQGTQVTVSS", "=", 3.21),
    ("NB6-18GS-NB6 (VHH) EVQLVESGGGLVQAGGSLRLSCAASGPTFSADTMGWFRQAPGKEREFVATIPWSGGIAYYSDSVKGRFTMSRDNAKNTVDLQMNSLKPEDTALYYCAGSSRIYIYSDSLSERSYDYWGQGTQVTVSSGGGGSGGGGSGGGGGGGSEVQLVESGGGLVQAGGSLRLSCAASGPTFSADTMGWFRQAPGKEREFVATIPWSGGIAYYSDSVKGRFTMSRDNAKNTVDLQMNSLKPEDTALYYCAGSSRIYIYSDSLSERSYDYWGQGTQVTVSSAAAEQKLISEEDLNGAAHHHHHH", ">", 725),
    ("213-E6 25GS 212-C12 (VHH) EVQLVESGGGLVQAGASLRLSCAASGSTLSRYGVGWFRQAPGKERELVASVDWSGSRTYYADSVKGRFTISRDNAKNTGYLQMNSLKPDDTAVYYCAADSSVVPGIEKYDDWGLGTQVTVSSGGGGSGGGGSGGGGSGGGGSGGGGSEVQLVESGGGLVQPGGSLRLSCAASGFTFGSSDMSWVRQAPGKGPEWVSGINSGGGRTLYADSVKGRFTISRDNAKNTLYLQMNSLKSEDTAVYYCATDLYGSSWYTDYWSQGTQVTVSS", "=", 4.79),
]
